All figures here come from paper PMC7327521.

Biological target: T1, Spt6-tSH2 K1354E (C. glabrata, UniProt Q6FLB1 1250-1444, K1354E)
T1 sequence (looked up): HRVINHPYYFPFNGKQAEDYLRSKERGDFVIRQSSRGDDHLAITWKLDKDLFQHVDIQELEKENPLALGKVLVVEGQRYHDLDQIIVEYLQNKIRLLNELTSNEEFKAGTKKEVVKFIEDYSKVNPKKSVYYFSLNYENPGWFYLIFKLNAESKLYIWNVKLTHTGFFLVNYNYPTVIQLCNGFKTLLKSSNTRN
Experiment: fluorescence polarisation
Square brackets hold non-standard residues; d marks the D form. Ends that are not written are not given here. pY = N[C@@H](Cc1ccc(OP(=O)(O)O)cc1)C(=O)O
parameter: Kd (µM)
Kindly answer with a numeric value in µM, unit omitted.

Prompt: Sample {5,6‑FAM}-PS[pY]SPTSPS[pY]SPTSPS [(pY1-CTD)2, FAM-labelled tyrosine-phosphorylated CTD diheptad] — what was its Kd?
Response: 16.3
